Measured values drawn from ChEMBL document CHEMBL1136980 for this set.

- Tested on: Candida albicans
- Assay explanation: Antifungal activity against Candida albicans NCIM 3471 by agar plate assay
- Type: functional
Give MIC for every item shown.
Give bare numbers, in µg/mL.

[
  {
    "Chemical string": "CCCC(=O)N1CCC(n2cc(-c3noc(=O)[nH]3)nn2)CC1",
    "MIC (µg/mL)": 90
  },
  {
    "Chemical string": "CCC(=O)N1CCC(n2cc(-c3noc(=O)[nH]3)nn2)CC1",
    "MIC (µg/mL)": 85
  },
  {
    "Chemical string": "O=C(c1ccc(Cl)cc1)N1CCC(n2cc(-c3noc(=O)[nH]3)nn2)CC1",
    "MIC (µg/mL)": 40
  },
  {
    "Chemical string": "CC(C)(C)OC(=O)N1CCC(n2cc(C(N)=O)nn2)CC1",
    "MIC (µg/mL)": 50
  },
  {
    "Chemical string": "O=c1[nH]c(-c2cn(C3CCNCC3)nn2)no1",
    "MIC (µg/mL)": 27.5
  }
]

Task: MIC lookup needed for `CS(=O)(=O)N1CCC(n2cc(-c3noc(=O)[nH]3)nn2)CC1` , thanks.
Output: 20
